Please respond with reported viability, T/C for every item in the list.
- Tested on: 885724-159-R-J1-PDC complex spheroid viability;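 also: spheroids exposed to compounds for 7 days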
- protocolDescription: Anticancer human tumor 885724-159-R-J1-PDC patient-derived pancreatic adenocarcinoma cell line growth inhibition [POLQ]
- conditionSummary: second compound 0.316 µM; first compound 10 µM; stronger effect = lower value

CC1COCCN1c1cc(-c2ccnn2C)c2ccnc(-c3ccn[nH]3)c2n1 (stereo unspecified) + Nc1ccc(C#CCN(C(=O)Cc2ncc(C(F)(F)F)cc2C(F)(F)F)c2ccc(F)cc2)nn1 | 39.1%

The following compounds each have a reported value; give each one's viability, T/C.
1. CC(C)n1c(=O)n(C)c2cnc3cc(F)c(-c4ccc(OCCCN5CCCCC5)nc4)cc3c21 + Nc1ccc(C#CCN(C(=O)Cc2ncc(C(F)(F)F)cc2C(F)(F)F)c2ccc(F)cc2)nn1
2. CCCS(=O)(=O)Nc1ccc(F)c(C(=O)c2c[nH]c3ncc(-c4ccc(Cl)cc4)cc23)c1F + COC1C(OC(N)=O)C(O)C(Oc2ccc3c(O)c(NC(=O)c4ccc(O)c(CC=C(C)C)c4)c(=O)oc3c2C)OC1(C)C
3. C=CC(=O)N1CCN(c2nc(=O)n(-c3c(C)ccnc3C(C)C)c3nc(-c4c(O)cccc4F)c(F)cc23)C(C)C1 (stereo unspecified) + Cc1cccc(N(C)C(=O)C2C(O)CCN2c2nc(C)cc(C(F)(F)F)c2C#N)c1

Key:
1. 87.7%
2. 76.6%
3. 88%

The following compounds each have a reported value; give each one's viability, T/C.
1. CNCc1ccc(-c2[nH]c3cc(F)cc4c3c2CCNC4=O)cc1 + Nc1ccc(C#CCN(C(=O)Cc2ncc(C(F)(F)F)cc2C(F)(F)F)c2ccc(F)cc2)nn1
2. Nc1ccn(C2OC(CO)C(O)C2(F)F)c(=O)n1 (stereo unspecified) + COC1C(OC(N)=O)C(O)C(Oc2ccc3c(O)c(NC(=O)c4ccc(O)c(CC=C(C)C)c4)c(=O)oc3c2C)OC1(C)C

Key:
1. 92.7%
2. 44%

The following compounds each have a reported value; give each one's viability, T/C.
1. CCc1cc2c(N3CCc4c(cc(Cn5ccnc5)cc4-c4cn(C)nc4C(F)(F)F)C3=O)cc(C)nc2c(OC)n1 + COC1C(OC(N)=O)C(O)C(Oc2ccc3c(O)c(NC(=O)c4ccc(O)c(CC=C(C)C)c4)c(=O)oc3c2C)OC1(C)C
2. CNCc1ccc(-c2[nH]c3cc(F)cc4c3c2CCNC4=O)cc1 + Cc1cccc(N(C)C(=O)C2C(O)CCN2c2nc(C)cc(C(F)(F)F)c2C#N)c1
3. O=C(c1cc(Cc2n[nH]c(=O)c3ccccc23)ccc1F)N1CCN(C(=O)C2CC2)CC1 + Nc1ccc(C#CCN(C(=O)Cc2ncc(C(F)(F)F)cc2C(F)(F)F)c2ccc(F)cc2)nn1
4. CC1COCCN1c1cc(C2(O)CC3CCC(C2)O3)c2cnn(-c3ccn[nH]3)c2n1 (stereo unspecified) + COC1C(OC(N)=O)C(O)C(Oc2ccc3c(O)c(NC(=O)c4ccc(O)c(CC=C(C)C)c4)c(=O)oc3c2C)OC1(C)C
5. CC1COCCN1c1cc(C2(O)CC3CCC(C2)O3)c2cnn(-c3ccn[nH]3)c2n1 (stereo unspecified) + Cc1cccc(N(C)C(=O)C2C(O)CCN2c2nc(C)cc(C(F)(F)F)c2C#N)c1

Key:
1: 67.6%; 2: 88.5%; 3: 75.8%; 4: 28.6%; 5: 28.8%
